Here's a roundup of IC50 values tested on Tyrosine-protein kinase JAK1 (Homo sapiens, UniProt P23458), taken from various published works.

Some molecules with known IC50 results, for comparison:
>>> assay_value("N#CCS(=O)(=O)NCC1CCN(n2c(N)nc3cnc4[nH]ccc4c32)CC1")
"0.045 nM"
>>> assay_value("C[C@@H](O)c1nc2cnc3[nH]ccc3c2n1[C@H]1CCN(CCCCCF)C1")
"< 10 nM"
>>> assay_value("CCCS(=O)(=O)N1CCC(n2c(-c3cccc(O)c3)nc3cnc4[nH]ccc4c32)C1 (stereo not shown)")
"10 to 100 nM"
>>> assay_value("CCC(CC#N)n1cc(-c2cccc3nc(NC(=O)C4CC4)cn23)cn1 (stereo not shown)")
"19.5 nM"
>>> assay_value("CC(C)[C@H](N)C(=O)O[C@H](C)c1nc2cnc3[nH]ccc3c2n1N1CCC(CC#N)CC1")
"3.05 nM"

Can you look up IC50 on Tyrosine-protein kinase JAK1 (Homo sapiens, UniProt P23458) for `O=C(/C=C/CN1CCOCC1)Nc1cc2cc(c1)Nc1nccc(n1)-c1cccc(c1)COC/C=C/COC2` ?
44 nM

Then what about the molecule `C[C@@H](OC(=O)CCCCO[N+](=O)[O-])c1nc2cnc3[nH]ccc3c2n1N1CCC(CC#N)CC1` ?
31.3 nM

Okay, and CCCS(=O)(=O)N1CCC(n2c(-c3ncc[nH]3)nc3cnc4[nH]ccc4c32)C1 (stereo not shown) ?
10 to 100 nM

Same for N#CCC(CN1CCN(C(=O)c2ccc(C#N)cc2F)CC1)n1ccc(-c2ncnc3[nH]ccc23)c1 (stereo not shown)
< 10 nM

Repeat with CCCCC(CC#N)n1cc(-c2cccc3nc(NC(=O)C4CC4)cn23)cn1 (stereo not shown)
7.62 nM

Lookup CCC(C(=O)NCC(F)(F)F)N1CC[C@H](n2c([C@@H](C)O)nc3cnc4[nH]ccc4c32)C1 (stereo partly shown)
< 10 nM
